# Test system: tRNA 2'-phosphotransferase TPT1 [Candida albicans SC5314]
# Protocol Details: tRNA 2'-phosphotransferase enzyme inhibition – biochemical, fluorescence polarization, triplicate, confirmation (AID 2149)
# Details: recombinant caTPT1, fluorescence polarization, RNase T1 coupled; at 5 µM; stronger effect = higher value
Out of some 2,400 compounds screened, about 1,800 (75%) were called active. So high a share suggests a set chosen from earlier hits. These entries were drawn from the full list.
Measure: inhibition

Field: example entries. Status: answers known.
# Compound Structure String, inhibition
rows = [
    ("Cc1cccc(NC(=O)c2ccc(COc3ccccc3[N+](=O)[O-])o2)n1", "7.02% (inactive)"),
    ("O=C(Nc1ccc(S(=O)(=O)Nc2nccs2)cc1)c1cc(-c2ccncc2)nc2ccccc12", "49.1% (active)"),
    ("CCN(CC)c1ccc(/C=N/Nc2nc(C)cc(C)n2)c(O)c1", "34% (active)"),
    ("CC(=O)c1cc(NC(=O)c2ccccc2)c(=O)oc1/C=C/N(C)C", "118% (active)"),
    ("Cc1ccc(-n2c(C)cc(/C=N/Nc3ccc([N+](=O)[O-])cn3)c2C)c(C)c1", "60.9% (active)"),
]

Test item "CC1=CC2=NC(=O)/C(=C/c3coc4ccccc4c3=O)C(=N)N2O1" ; tRNA 2'-phosphotransferase TPT1 [Candida albicans SC5314]; reported inhibition was 34% (active)

Test item "Fc1ccc2nc(Nc3nc4c(s3)CCCC4)sc2c1" ; tRNA 2'-phosphotransferase TPT1 [Candida albicans SC5314]; reported inhibition was 28.4% (active)

* * *

# Tested on: tRNA 2'-phosphotransferase TPT1 [Candida albicans SC5314]
# Protocol Details: tRNA 2'-phosphotransferase enzyme inhibition – biochemical, fluorescence polarization, triplicate, confirmation (AID 2149)
# Details: recombinant caTPT1, fluorescence polarization, RNase T1 coupled; at 5 µM
Screen size: about 2,400 compounds; about 1,800 (75%) were called active.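 The calls were made as follows: active = inhibition above the primary screen limit, the mean inhibition of all tested compounds plus 3 SD (cut at about 25% in these data); inactive = the rest.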 The set was probably picked from earlier hits. Only a sample is shown.
Parameter call: string, one of true (active), false (inactive)

What call does the record list for CCOC(=O)C1=C(C)Nc2sc(C(=O)c3ccc(Br)cc3)c(N)c2C1c1ccc(C(=O)OC)cc1 (centres undefined) ? true

* * *

# Test system: tRNA 2'-phosphotransferase TPT1 [Candida albicans SC5314]
# Protocol Details: tRNA 2'-phosphotransferase enzyme inhibition – biochemical, fluorescence polarization, triplicate, confirmation (AID 2149)
# Details: recombinant caTPT1, fluorescence polarization, RNase T1 coupled; at 5 µM; stronger effect = higher value
Hit rate of the full screen: of about 2,400 compounds, about 1,800 (75%) were called active. The set was probably picked from earlier hits. These entries were drawn from the full list.
Measured inhibition of individual entries
Entry rule: numbers only, all in %.

Field: example entries. Status: answers known.
# Compound Structure String, inhibition (%)
data = [
    ("CCOc1ccc(-n2c(O)c(/C=N/c3ccnn3Cc3ccncc3)c3ccccc3c2=O)cc1", 80.4),
    ("COC(=O)c1[nH]c2cccc(C)c2c1NC(=O)CN1CCCc2ccccc21", 19),
]

Proceed to the following item.
Noted for "CN1C(=O)/C(=C/C=C2\SCCN2C)OC1=S" : its inhibition reads 172

* * *

# Test system: tRNA 2'-phosphotransferase TPT1 [Candida albicans SC5314]
# Protocol Details: tRNA 2'-phosphotransferase enzyme inhibition – biochemical, fluorescence polarization, triplicate, confirmation (AID 2149)
# Details: recombinant caTPT1, fluorescence polarization, RNase T1 coupled; at 5 µM; stronger effect = higher value
Among all 2,400 compounds or so, about 1,800 (75%) were called active. So high a share suggests a set chosen from earlier hits. These entries were drawn from the full list.
Measured inhibition of individual entries
Entry rule: numbers only, all in %.

Field: example entries. Status: answers known.
# Compound, Result Unit, Measured Value
measured = [
    ("CN=c1scc(-c2cc(OC)ccc2OC)n1/N=C/c1c(C)[nH]c2ccccc12", "%", 22.2),
    ("CC[n+]1cc(C)ccc1/C=C/c1ccc(N(C)C)cc1", "%", 42.1),
]

Test item "CN1C(=O)/C(=C\c2ccc(-c3ccccc3)o2)SC1=S" ; tRNA 2'-phosphotransferase TPT1 [Candida albicans SC5314]; reported inhibition was 79.6

Test item "O=C(CN1C(=O)c2ccccc2C1=O)NCc1ccc(C(=O)O)cc1" ; tRNA 2'-phosphotransferase TPT1 [Candida albicans SC5314]; reported inhibition was 14.3

Test item "C=CCC1=C/C(=C\c2c(N)n3nc(CC(=O)N4CCOCC4)sc3nc2=O)C=C(OC)C1=O" ; tRNA 2'-phosphotransferase TPT1 [Candida albicans SC5314]; reported inhibition was 104

Test item "CN1/C(=c2/s/c(=C3/C(=O)N(c4ccccc4)NC3=Nc3ccccc3)n(C)c2=O)C(C)(C)c2ccccc21" ; tRNA 2'-phosphotransferase TPT1 [Candida albicans SC5314]; reported inhibition was 81

Test item O=C1NC(=O)C2C1C(c1ccc([N+](=O)[O-])cc1)=NN2Cc1ccccc1 (stereo not drawn) ; tRNA 2'-phosphotransferase TPT1 [Candida albicans SC5314]; reported inhibition was 33.2

Test item "Cc1ccc(S(=O)(=O)N(C)c2nc3ccccc3n3c(C(C)C)nnc23)cc1" ; tRNA 2'-phosphotransferase TPT1 [Candida albicans SC5314]; reported inhibition was -0.34

Test item "CCOc1ccc2nc(/N=C/c3nc(-c4ccccc4)oc3O)sc2c1" ; tRNA 2'-phosphotransferase TPT1 [Candida albicans SC5314]; reported inhibition was 58.6

Test item "Cc1cc(O)c(C(=O)/C=C/c2c(F)c(F)c(F)c(F)c2F)c(=O)o1" ; tRNA 2'-phosphotransferase TPT1 [Candida albicans SC5314]; reported inhibition was 63.4

Test item O=C(O)C(c1ccccc1)N1C(=O)/C(=C\c2ccc(-c3cccc(Cl)c3)o2)SC1=S (stereo not drawn) ; tRNA 2'-phosphotransferase TPT1 [Candida albicans SC5314]; reported inhibition was 151

Test item "Cc1ccc(Nc2nc(Cl)c(C=O)s2)cc1" ; tRNA 2'-phosphotransferase TPT1 [Candida albicans SC5314]; reported inhibition was 67.3

Test item "N#C/C(=C/c1ccc(N2CCOCC2)o1)C(=O)N1CCOCC1" ; tRNA 2'-phosphotransferase TPT1 [Candida albicans SC5314]; reported inhibition was 184

Test item "Cc1c(-c2ccccc2)cn2c1-c1ccc(C)n1CC2" ; tRNA 2'-phosphotransferase TPT1 [Candida albicans SC5314]; reported inhibition was 32.8

Test item "CCCCCCc1cc2cc(-c3nnc(-c4ccccc4)o3)c(=O)oc2cc1O" ; tRNA 2'-phosphotransferase TPT1 [Candida albicans SC5314]; reported inhibition was 117
